assay: chemical genetic growth profiling, strain panel (AID 1159580);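 also: tested at 20 µM; growth read once vehicle control cultures reached saturation at 30 °C; 1 = growth at the plate median or of vehicle wells; lower values mean less growth of the strain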; settings: S. cerevisiae deletion strains, growth OD, locus YBL105C, strain PKC1, hits give low values
In all, about 5,500 compounds went through this assay and about 2,000 (36%) were called active. About 18% were inconclusive and are not listed. Some of the results follow.
Consider the following molecules and their measured normalized growth readings.

smiles.str: COc1cc(NC(=S)N(C)C)c(OC)cc1Cl
normalized growth: 0.987 (inactive)
--
smiles.str: O=C(CSc1nnnn1-c1ccccc1)c1ccccc1
normalized growth: 0.958 (inactive)
--
smiles.str: COc1cc(NC(=S)NC(=O)c2ccccc2)c(OC)cc1Cl
normalized growth: 0.995 (inactive)
--
smiles.str: Cc1ccc(Sc2c(Sc3ccc(C)cc3)c(=O)c2=O)cc1
normalized growth: 0.982 (inactive)
--
smiles.str: Cc1cc(C(=O)NNc2ccc(F)cc2F)no1
normalized growth: 0.967 (inactive)
--
smiles.str: Cc1cc(Cl)ccc1NNC(=O)c1snnc1C
normalized growth: 0.949 (inactive)
--
smiles.str: O=c1c(Sc2ccc(Cl)cc2)c(Sc2ccc(Cl)cc2)c1=O
normalized growth: 0.984 (inactive)

* * *

test: chemical genetic growth profiling, strain panel (AID 1159580); details: S. cerevisiae deletion strains, growth OD, locus YHR142W, strain chs7
Among all 5,500 compounds or so, about 2,000 (36%) were called active. Another 18% or so got no clear call; they are omitted. Cut-off read from the data, not from the text of the source: active = normalized growth mostly below about 0.91 (no sharp cut-off); inconclusive = no clear call, values can overlap the other calls; inactive = mostly above about 0.92. Some of the results follow.
Possible outcomes: True (active), False (inactive)

smiles.str: CCCCCCCCCCCCCCCC[N+](C)(C)C
assigned.category: True
//
smiles.str: COc1ccc2c(c1)OCc1c-2oc2cc(OC)ccc12
assigned.category: True
//
smiles.str: O=C(O)c1c2ccccc2cc2ccccc12
assigned.category: False

* * *

assay: chemical genetic growth profiling, strain panel (AID 1159580); details: S. cerevisiae deletion strains, growth OD, locus YGL248W, strain PDE1, hits give low values
The campaign covered roughly 5,500 compounds. About 2,000 (36%) were called active. Inconclusive results (about 18%) are left out. Some of the results follow.

compound: O=C(CC[N+](=O)[O-])OC[C@H]1O[C@@H](O)[C@H](OC(=O)CC[N+](=O)[O-])[C@@H](OC(=O)CC[N+](=O)[O-])[C@@H]1OC(=O)CC[N+](=O)[O-]
normalized growth: 1.05
--
compound: CC1/C(=N\O)C[C@@H]2C[C@H]1C2(C)C (some centres undefined)
normalized growth: 1.03
--
compound: C=C(C)C1CNC(C(=O)O)C1CC(=O)O (centres undefined)
normalized growth: 1.01
--
compound: COc1cc2c(cc1OC)C(=O)OC2
normalized growth: 1.01

* * *

Quick list: normalized growth per entry.
test: chemical genetic growth profiling, strain panel (AID 1159580); conditions: S. cerevisiae deletion strains, growth OD, locus YLR268W, strain sec22, hits give low values
Out of some 5,500 compounds screened, about 2,000 (36%) were called active. About 18% were inconclusive and are not listed. Some of the results follow.
parameter.measured: normalized growth

compound: CCN(CC)CCCC(C)Nc1ccnc2cc(Cl)ccc12 (stereo not given)
test.result: 0.998

compound: CC1=C(/C=C/C(C)=C/C=C/C(C)=C/C=C/C=C(C)/C=C/C=C(C)/C=C/C23OC2(C)CC(O)CC3(C)C)C(C)(C)CC(O)C1 (stereo not given)
test.result: 1.02

compound: CCCCCCCCCCCCCCCC(=O)OC/C=C(C)/C=C/C=C(C)/C=C/C1=C(C)CCCC1(C)C
test.result: 0.996

compound: CCC(=O)O[C@H]1[C@H](O[C@@H]2[C@@H](C)[C@H](O[C@H]3C[C@@](C)(OC)[C@@H](O)[C@H](C)O3)[C@@H](C)C(=O)O[C@H](CC)[C@@](C)(O)[C@H](O)[C@@H](C)C(=O)[C@H](C)C[C@@]2(C)O)O[C@H](C)C[C@@H]1N(C)C
test.result: 0.988

compound: CC1=C(/C=C/C(C)=C/C=C/C(C)=C/C=C/C=C(C)/C=C/C=C(C)/C=C/C2=C(C)C(=O)C(O)CC2(C)C)C(C)(C)CC(O)C1=O (stereo not given)
test.result: 0.999

compound: CC(C[N+](C)(C)C)OC(N)=O (stereo not given)
test.result: 0.973

compound: C[N+](C)(C)CCOC(N)=O
test.result: 0.978

compound: CC(NCCc1ccc(O)cc1)C(O)c1ccc(O)cc1 (stereo not given)
test.result: 0.975

compound: CC(N)CCCC(C)(C)O (stereo not given)
test.result: 0.999

compound: CCN(CCO)CCCC(C)Nc1ccnc2cc(Cl)ccc12 (stereo not given)
test.result: 1.02

* * *

assay: chemical genetic growth profiling, strain panel (AID 1159580);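 also: tested at 20 µM; growth read once vehicle control cultures reached saturation at 30 °C; 1 = growth at the plate median or of vehicle wells; lower values mean less growth of the strain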; settings: S. cerevisiae deletion strains, growth OD, locus YNL322C, strain KRE1, hits give low values
In all, about 5,500 compounds went through this assay and about 2,000 (36%) were called active. Not shown: some 18% with an inconclusive outcome. This is one part of the list.

compound: Cc1nc2c([nH]1)c(=O)n(C)c(=O)n2Cc1ccco1
normalized growth: 1.02
--
compound: COc1ccc(S(=O)(=O)Nc2ccccc2Oc2ccc(Cl)cc2Cl)cc1OC
normalized growth: 0.988
--
compound: O=C(O)c1nn(Cc2ccc(Cl)cc2Cl)c2ccccc12
normalized growth: 0.998
--
compound: COc1ccc(C2=C(C(C)=O)C(C)=NC(=S)C2C#N)cc1 (configuration not stated)
normalized growth: 1
--
compound: CC1=C(/C=C/C(C)=C/C=C/C(C)=C/C=C/C=C(C)/C=C/C=C(C)/C=C/C23OC2(C)CC(O)CC3(C)C)C(C)(C)CC(O)C1 (configuration not stated)
normalized growth: 1.01
--
compound: CCOC(=O)CCC(=O)O[C@H]1[C@H](O[C@@H]2[C@@H](C)[C@H](O[C@H]3C[C@@](C)(OC)[C@@H](O)[C@H](C)O3)[C@@H](C)C(=O)O[C@H](CC)[C@@](C)(O)[C@H](O)[C@@H](C)C(=O)[C@H](C)C[C@@]2(C)O)O[C@H](C)C[C@@H]1N(C)C
normalized growth: 0.995
--
compound: CC1=C(OS(=O)(=O)c2cc(C)c(Cl)cc2Cl)C(=O)CC1
normalized growth: 0.97
--
compound: CCOC(=O)c1c(C)cc(O)c(C)c1O
normalized growth: 0.968
--
compound: COc1ccccc1N1CCN(S(=O)(=O)c2cc(C)c(Cl)cc2C)CC1
normalized growth: 0.994
--
compound: Cn1cnc(CCN)c1
normalized growth: 1.01
--
compound: CCS(=O)CCSP(=O)(OC)OC (configuration not stated)
normalized growth: 1.01
--
compound: O=C1c2cccc3cc([N+](=O)[O-])cc(c23)C(=O)N1CCO
normalized growth: 1.01

* * *

assay: chemical genetic growth profiling, strain panel (AID 1159580);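 also: tested at 20 µM; growth read once vehicle control cultures reached saturation at 30 °C; 1 = growth at the plate median or of vehicle wells; lower values mean less growth of the strain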; details: S. cerevisiae deletion strains, growth OD, locus YBR229C, strain ROT2
In all, about 5,500 compounds went through this assay and about 2,000 (36%) were called active. Another 18% or so got no clear call; they are omitted. Rule as the data show it: active = normalized growth mostly below about 0.91 (no sharp cut-off); inconclusive = no clear call, values can overlap the other calls; inactive = mostly above about 0.92. The list shows a part of the results.
Outcomes: 1 = active, -1 = inactive

compound: COc1ccccc1N1CCN(S(=O)(=O)c2cc(C)c(Cl)cc2C)CC1
assigned.category: -1
--
compound: CC(C)(O)[C@@H]1[C@H]2OC(=O)[C@@H]1[C@]1(O)C[C@H]3O[C@]34C(=O)O[C@H]2[C@]14C
assigned.category: -1
--
compound: Ic1ccc(I)s1
assigned.category: -1
--
compound: COc1cc(C(F)(F)F)cc(C(F)(F)F)c1C(=O)Nc1cc(C(F)(F)F)cc(C(F)(F)F)c1
assigned.category: -1
--
compound: COC(=O)/C(=C/N(C)C)Sc1cc(C)c(Cl)cc1Cl
assigned.category: -1
--
compound: O=C(CC[N+](=O)[O-])OC[C@H]1O[C@@H](O)[C@H](OC(=O)CC[N+](=O)[O-])[C@@H](OC(=O)CC[N+](=O)[O-])[C@@H]1OC(=O)CC[N+](=O)[O-]
assigned.category: -1
--
compound: CC(=O)C1CCC2C3CC(=O)C4=CC(=O)CCC4(C)C3CCC12C (stereo unspecified)
assigned.category: -1
--
compound: CN(C)c1ccc(C(=C2C=CC(=[N+](C)C)C=C2)c2ccc(N(C)C)cc2)cc1
assigned.category: 1
--
compound: C=C(C)[C@@H]1[C@H]2OC(=O)[C@@H]1[C@]1(O)C[C@H]3O[C@]34C(=O)O[C@H]2[C@]14C
assigned.category: -1
--
compound: CN(C)c1ccc(C(=O)NN)cc1
assigned.category: -1
--
compound: CC1=C(OS(=O)(=O)c2cc(C)c(Cl)cc2Cl)C(=O)CC1
assigned.category: -1

* * *

Some compounds, each annotated with its measured normalized growth.
assay: chemical genetic growth profiling, strain panel (AID 1159580);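 also: tested at 20 µM; growth read once vehicle control cultures reached saturation at 30 °C; 1 = growth at the plate median or of vehicle wells; lower values mean less growth of the strain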; conditions: S. cerevisiae deletion strains, growth OD, locus YHR129C, strain ARP1, hits give low values
Hit rate of the full screen: of about 5,500 compounds, about 2,000 (36%) were called active. About 18% were inconclusive and are not listed. The list shows a part of the results.
parameter.measured: normalized growth

compound: Cc1cccc(C)c1OCC(C)N (stereo not drawn)
test.result: 0.999

compound: CN(C)CC/C=C1\c2ccccc2Sc2ccc(Cl)cc21
test.result: 0.994

compound: CC(C)CC(NC(=O)C(Cc1ccccc1)NC(=O)CNC(=O)CNC(=O)C(N)Cc1ccc(O)cc1)C(=O)O (stereo not drawn)
test.result: 0.998

compound: CC(C(=O)O)c1cccc(C(=O)c2ccccc2)c1 (stereo not drawn)
test.result: 0.987

compound: NCCSSCCN
test.result: 1.02

compound: CC1(C)OC(=O)NC1=O
test.result: 0.998

compound: CC1/C(=N\O)C[C@@H]2C[C@H]1C2(C)C (stereo partly drawn)
test.result: 1.01

compound: CC1(C)C(C=C(Cl)Cl)C1C(=O)OC(C#N)c1cccc(Oc2ccccc2)c1 (stereo not drawn)
test.result: 0.997

compound: COc1ccc2c(c1OC)C(=O)O[C@@H]2[C@H]1c2cc3c(cc2CCN1C)OCO3
test.result: 1.02

compound: CC(CCc1ccccc1)NC(C)C(O)c1ccc(O)cc1 (stereo not drawn)
test.result: 0.987

compound: C=C1C2CC[C@H]3[C@]4(C)C[C@H](OC5OC(CO)C(OS(=O)(=O)O)C(OS(=O)(=O)O)C5OC(=O)CC(C)C)C[C@@H](C(=O)O)[C@H]4CC[C@]3(C2)[C@H]1O (stereo partly drawn)
test.result: 1.01

compound: CC(NCCc1ccc(O)cc1)C(O)c1ccc(O)cc1 (stereo not drawn)
test.result: 0.986

compound: COc1ccc2cc([C@H](C)CO)ccc2c1
test.result: 0.995

compound: COc1cc2c(cc1OC)C1C(=O)c3c(cc4c(c3O)C=CC(C)(C)O4)OC1CO2 (stereo not drawn)
test.result: 1.02

compound: COCCc1ccc(OCC(O)CNC(C)C)cc1 (stereo not drawn)
test.result: 1.01

compound: CCOC(=O)[C@H](CCc1ccccc1)N[C@H]1CCc2ccccc2N(CC(=O)O)C1=O
test.result: 0.988

compound: CCCCCCCCNC(C)C(O)c1ccc(SC(C)C)cc1 (stereo not drawn)
test.result: 0.0538

compound: COc1cc2c(cc1OC)[C@@H]1C(=O)c3ccc4c(c3O[C@@H]1CO2)C=CC(C)(C)O4
test.result: 0.989

compound: C[C@@H]1[C@H]2[C@H](O[C@@H]3O[C@H](CO)[C@@H](O)[C@H](O)[C@H]3O)OC=C(C(=O)O)[C@H]2C[C@@H]1O
test.result: 1

compound: NC(=O)c1ccc[n+]([C@@H]2O[C@H](COP(=O)([O-])OP(=O)(O)OC[C@H]3O[C@@H](n4cnc5c(N)ncnc54)[C@H](O)[C@@H]3O)[C@@H](O)[C@H]2O)c1
test.result: 0.996

compound: COc1cc2c(cc1OC)[C@@H]1C(=O)c3ccc(O)c(CC=C(C)C)c3O[C@@H]1CO2
test.result: 0.984

compound: O=C(O)C1(O)C[C@@H](O)C(O)[C@H](O)C1 (stereo partly drawn)
test.result: 1.01

compound: CC[C@H]1OC(=O)[C@H](C)[C@@H](O[C@H]2C[C@@](C)(OC)[C@@H](O)[C@H](C)O2)[C@H](C)[C@@H](O[C@@H]2O[C@H](C)C[C@H](N(C)C)[C@H]2O)[C@](C)(O)C[C@@H](C)CN(C)[C@H](C)[C@@H](O)[C@]1(C)O
test.result: 0.996
